Target: recombinant HDAC2 (Homo sapiens)
Sequence (Q92769 whole entry): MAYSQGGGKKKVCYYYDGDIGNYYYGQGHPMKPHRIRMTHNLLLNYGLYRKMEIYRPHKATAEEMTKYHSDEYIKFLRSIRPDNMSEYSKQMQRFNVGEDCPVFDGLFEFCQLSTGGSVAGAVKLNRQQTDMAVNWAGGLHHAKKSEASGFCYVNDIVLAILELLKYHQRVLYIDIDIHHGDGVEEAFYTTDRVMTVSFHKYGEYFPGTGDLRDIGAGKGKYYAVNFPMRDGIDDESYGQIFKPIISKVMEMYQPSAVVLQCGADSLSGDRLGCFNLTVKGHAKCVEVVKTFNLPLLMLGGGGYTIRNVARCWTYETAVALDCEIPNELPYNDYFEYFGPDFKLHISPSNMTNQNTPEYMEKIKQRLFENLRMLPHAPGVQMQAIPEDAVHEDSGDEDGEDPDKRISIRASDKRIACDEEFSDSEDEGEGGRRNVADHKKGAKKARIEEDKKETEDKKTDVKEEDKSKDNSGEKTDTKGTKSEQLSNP
Assay: Recombinant HDAC activity assay
Format: biochemical
Conditions: 2 h, read-out: % HDAC activity, Class I HDACs, 2
Structures can show the parent of a compound that is named as a salt.

{"molecule": "O=c1c(O)c(-c2ccc(O)cc2)oc2cc(O)cc(O)c12", "remaining activity at 50 µM": "71.7%"}
{"molecule": "O=C1Nc2ccccc2/C1=C1/Nc2ccccc2C1=O", "remaining activity at 50 µM": "58.7%"}
{"molecule": "O=C1c2c(O)cc(O)cc2O[C@H](c2cc(O)c(O)c(O)c2)[C@H]1O [Dihydromyricetin]", "remaining activity at 50 µM": "73.9%"}
{"molecule": "O=c1cc(-c2ccc(O)cc2)oc2cc(O)cc(O)c12", "remaining activity at 50 µM": "90.4%"}
{"molecule": "O=c1cc(-c2ccc(O)c(O)c2)oc2cc(O)cc(O)c12", "remaining activity at 50 µM": "49.5%"}
{"molecule": "Cc1cc2c(C(C)C)c(O)c(O)c(C=O)c2c(O)c1-c1c(C)cc2c(C(C)C)c(O)c(O)c(C=O)c2c1O", "remaining activity at 50 µM": "15.1%"}
{"molecule": "COc1ccc2cc3[n+](cc2c1OC)CCc1cc2c(cc1-3)OCO2 [Berberine HCl, berberine hydrochloride]", "remaining activity at 50 µM": "70.3%"}
{"molecule": "Cc1cc(O)c2c(c1)C(=O)c1cc(O)cc(O)c1C2=O", "remaining activity at 50 µM": "35%"}
{"molecule": "O=C(O)[C@H]1O[C@@H](Oc2cc3oc(-c4ccccc4)cc(=O)c3c(O)c2O)[C@H](O)[C@@H](O)[C@@H]1O", "remaining activity at 50 µM": "72.9%"}
